Schmidt Score (H&E) overview
System: acute pancreatitis murine model
Assay: Caerulein-induced acute pancreatitis murine model
Type: in vivo, Balb/c mice
Details: 1st experiment; caerulein induced; 15 mg/kg IV, Ib-010a and IVc-059a 150 mg/kg PO, Pirfenidone 40 mg/kg IV; induced + vehicle = 10, non-induced = 0
Protocol: Therapeutic efficacy of the compounds according to the present invention was assessed on an acute pancreatitis murine model. Tissue samples were obtained to allow post in-life analysis of pancreatitis parameters. […] Sampling and post in-life analyses: at times indicated above a whole blood sample (60 μl) were taken from the lateral tail vein into tubes coated with K2-EDTA. […] Plasma samples were sent to client bioanalysis provider Eurofins (FR) for quantification of compound. […]
Answer with a number only.

Reference set (6 entries):
1. O=C(O)c1cc(NC(=O)c2cc(O)c(C(=O)Nc3ccc(O)c(C(=O)O)c3)cc2O)ccc1O [Ic-007a] | 6.0
2. O=C(O)c1cc(O)c(C(=O)Nc2ccccc2C(=O)O)cc1O [Ia-001a] | 6.3
3. O=C(O)c1cc(O)cc(CS(=O)(=O)Cc2cc(O)cc(C(=O)O)c2O)c1O [IVc-059a] | 4.0
4. O=C(O)c1cc(O)c(C(=O)Nc2ccccc2-c2nnn[nH]2)cc1O [Ia-001a-Tz] | 5.9
5. Cc1ccc(=O)n(-c2ccccc2)c1 [pirfenidone, reference compound] | 4.1
6. O=C(O)c1cc(NC(=O)c2cc(O)c(C(=O)O)cc2O)cc(NC(=O)c2cc(O)c(C(=O)O)cc2O)c1 [Ib-010a] | 6.3

Inquiry: Returns the measured Schmidt Score (H&E) for the input compound. Input: O=C(O)c1cc(O)c(CN(Cc2cc(O)c(C(=O)O)cc2O)Cc2cc(O)c(C(=O)O)cc2O)cc1O [IIIc-061a]
Reply text: 3.5

Inquiry: Returns the measured Schmidt Score (H&E) for the input compound. Input: O=C(O)c1cc(NC(=O)c2cc(O)c(C(=O)Nc3ccccc3-c3nnn[nH]3)cc2O)ccc1O [Ic-001a-Tz/004a]
Reply text: 6.9
